- METHOD DESCRIPTION: physchem
- Type: physicochemical
- EXPERIMENTAL CONTEXT: pH 7.4, aqueous buffer
ENDPOINT NAME: solubility (µM)

COMPOUND | ENDPOINT NAME | RECORDED NUMBER
CN(CCCN1CN(c2ccccc2)C2(CCN(CC[C@@H]3CC[C@H]4C[C@@H]3C4(C)C)CC2)C1=O)CC1(O)CCN(C(=N)N)CC1 [Compound 1] | solubility | 185

###

// reported pIC50 per item
- TARGET DESC: TbTR (Trypanosoma brucei trypanothione reductase) (Trypanosoma brucei brucei, UniProt P39051)
- Construct: the gene coding for the enzyme (aa 1–492) was codon optimized for the expression in E.coli; made in house; host or cells: E. coli BL21(DE3)
- Sequence (P39051 whole entry, the tested form may be a part): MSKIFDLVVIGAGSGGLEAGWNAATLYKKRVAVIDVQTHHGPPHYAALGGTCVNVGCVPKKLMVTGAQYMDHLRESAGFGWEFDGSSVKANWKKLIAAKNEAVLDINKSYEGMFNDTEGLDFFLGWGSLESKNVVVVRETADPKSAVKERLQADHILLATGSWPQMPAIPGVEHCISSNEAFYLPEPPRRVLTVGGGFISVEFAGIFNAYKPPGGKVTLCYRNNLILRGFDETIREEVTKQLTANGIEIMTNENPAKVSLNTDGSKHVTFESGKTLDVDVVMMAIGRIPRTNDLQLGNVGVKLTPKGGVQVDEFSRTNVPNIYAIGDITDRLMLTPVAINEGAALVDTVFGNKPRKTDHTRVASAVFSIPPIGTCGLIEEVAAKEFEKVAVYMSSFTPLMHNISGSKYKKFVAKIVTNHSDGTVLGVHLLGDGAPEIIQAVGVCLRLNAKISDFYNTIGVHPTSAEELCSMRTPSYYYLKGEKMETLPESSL
- METHOD DESCRIPTION: TbTR luminescent (NADPH-Glo) enzyme assay
- Format: biochemical
- EXPERIMENTAL CONTEXT: TbTR assay IC50, luminescence assay, n=4, dose-response from 85 μM
pIC50: −log10 of the molar value.

STRUCTURE STRING | BOUND OPERATOR | pIC50
O=C(CCN1CN(c2ccccc2)C2(CCNCC2)C1=O)NC(c1ccccc1)c1ccccc1 | < | 4.07
CN(CCCN1CN(c2ccccc2)C2(CCN(CC[C@@H]3CC[C@H]4C[C@@H]3C4(C)C)CC2)C1=O)CC1(O)CCN(C(=N)N)CC1 | = | 5.46
